Below: compounds with pIC50 recorded for N-lysine methyltransferase SMYD2 (Homo sapiens, UniProt Q9NRG4) in separate published works.
# reply with the number alone; pIC50 is -log10 of concentration in mol/L

Record excerpt, results attached:
Compound	Target Desc	pIC50
O=C1COc2c(CCNCCN(C(=O)CCNCCc3ccccc3)C3CCCCC3)ccc(O)c2N1	N-lysine methyltransferase SMYD2 (Homo sapiens, UniProt Q9NRG4)	6.36
O=C1COc2c(CCNCCN(C(=O)CCNCCc3ccccc3)C3CCC3)ccc(O)c2N1	N-lysine methyltransferase SMYD2 (Homo sapiens, UniProt Q9NRG4)	4.59
NC(=O)c1cccc(CCN(CCC[C@H](N)C(=O)O)C[C@H]2O[C@@H](n3cnc4c(N)ncnc43)[C@H](O)[C@@H]2O)c1	N-lysine methyltransferase SMYD2 (Homo sapiens, UniProt Q9NRG4)	4.21

[ask] Request: pIC50, test system N-lysine methyltransferase SMYD2 (Homo sapiens, UniProt Q9NRG4), entry CC(C)[Si](OCCC1COC2(C=CC(=O)C=C2)N(C)C1=O)(C(C)C)C(C)C (stereo not given)
[reply] 6.17

[ask] Request: pIC50, test system N-lysine methyltransferase SMYD2 (Homo sapiens, UniProt Q9NRG4), entry CN1C(=O)C(CCNc2ccc(Cl)c(Cl)c2)COC12C=CC(=O)C=C2 (stereo not given)
[reply] 5.42
